Reference source for all entries: ChEMBL document CHEMBL5154637

Give pEC50 for every item shown.
# Tested on: Human coronavirus 229E
# ASSAY_NAME: Antiviral activity against Human coronavirus 229E infected in human MRC5 cells assessed as reduction in virus-induced cytopathic effect incubated for 3 days by Celltiter-Glo assay
# Assay type: functional, organism-based
# CONDITIONS_USED: MRC5, 72 h
Units for pEC50: none; it is -log10 of a concentration expressed in mol/L.

Req: Field: pEC50 (Human coronavirus 229E). Entry: `COc1cccc2[nH]c(C(=O)N[C@@H](CC(C)C)C(=O)N[C@@H](C[C@@H]3CCCNC3=O)C(=O)COC(=O)c3c(Cl)cccc3Cl)cc12`
Resp: 7.68

Req: // next record `COc1cccc2[nH]c(C(=O)N[C@@H](CC(C)C)C(=O)N[C@@H](C[C@@H]3CCCNC3=O)C(=O)COC(=O)C(C)(C)C(F)(F)F)cc12`
Resp: 6.95

Req: Moving on to `COc1cccc2[nH]c(C(=O)N[C@@H](CC(C)C)C(=O)N[C@@H](C[C@@H]3CCCNC3=O)C(=O)COC(=O)c3c(C)cc(C)nc3C)cc12`
Resp: 7.32

Req: Entry `CCC(CC)COC(=O)[C@H](C)N[P@](=O)(OC[C@H]1O[C@@](C#N)(c2ccc3c(N)ncnn23)[C@H](O)[C@@H]1O)Oc1ccccc1` please
Resp: 7.46

Req: Same question, `COc1cccc2[nH]c(C(=O)N[C@@H](CC(C)C)C(=O)N[C@@H](C[C@@H]3CCCNC3=O)C(=O)COC(=O)c3c(C(F)(F)F)cc(C)nc3C)cc12` this time
Resp: 7.52

Req: And then `COc1cccc2[nH]c(C(=O)N[C@@H](CC(C)C)C(=O)N[C@@H](C[C@@H]3CCCNC3=O)C(=O)COC(=O)c3c(C(F)(F)F)cccc3C(F)(F)F)cc12` , what is it?
Resp: 7.54

Req: // repeat for `COc1cccc2[nH]c(C(=O)N[C@@H](CC(C)C)C(=O)N[C@@H](C[C@@H]3CCNC3=O)C(=O)COC(=O)c3c(C(F)(F)F)cc(C)nc3C)cc12` and report
Resp: 7.89

Req: Similarly, `COc1cccc2[nH]c(C(=O)N[C@@H](CC(C)C)C(=O)N[C@@H](C[C@@H]3CCCNC3=O)C(=O)COC(=O)C3(C(F)(F)F)CCCCC3)cc12` ?
Resp: 6.71
